B1: OR4K15 (parent)
chain: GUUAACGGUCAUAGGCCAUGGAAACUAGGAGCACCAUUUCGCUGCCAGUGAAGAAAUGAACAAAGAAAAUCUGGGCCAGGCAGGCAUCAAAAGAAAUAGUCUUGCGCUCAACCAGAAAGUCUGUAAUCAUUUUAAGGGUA

Variants of: B1
Assay: self-cleavage, relative activity (ratio to wild type); higher = more cleavage; in vitro, sequencing; the parent is a self-cleaving ribozyme
# if value of self-cleavage reaches 1, tag 1; if it stays below, tag 0

Please review the following examples before continuing.
>>> class_label("GUUAACGGUCAUAGGCCAUGGAAACUAGGAGCACCAUUUCGCUGCCAGUGAAGAAAUGUACAAAGAAAAUCUGGGCCAGGCAGGCAUCAAAAGAAGUAGUCUUGCGCUCAACCAGAAAGUCUGUAAUCAUUUUAAGGGUA")
1
>>> class_label("GUUAGCGGUCAUAGGCCAUGGAAACUAGGAGCACCAUUUCGCUGCCAGUGAAGAAAUGAACAAAGAAAAUCUGGGCCAGGCAGGCAUCAAAAGAAAUAGUCUUGCGUUCAACCAGAAAGUCUGUAAUCAUUUUAAGGGUA")
0
>>> class_label("GUUAACGGUCAUAGGCCAUGGAAACUAGGAGCACCUUUUCGCUGCCAGUGAAGAAAUGAACAAAGAAAAUCUGGGCCAGGCAGGCAUCAAAAGAAAUAGUCUUGCGCUCAACCAGUAAGUCUGUAAUCAUUUUAAGGGUA")
0
>>> class_label("GUUAACGGUCAUAGGCCAUGGAAACUAGGAGCACCAUUUCGCUGCCAGUGAAGAAAUGAACAAAGAAAAUCUGGGCAAGGCAGGCAUCAAAAGAAAUAGCCUUGCGCUCAACCAGAAAGUCUGUAAUCAUUUUAAGGGUA")
0
>>> class_label("GUUAGCGGUCAUAGGCCAUGGAAACUAGGAGCACCAUUUCGCUGCCAGUGAAGAAAUGAACAGAGAAAAUCUGGGCCAGGCAGGCAUCAAAAGAAAUAGUCUUGCGCUCAACCAGAAAGUCUGUAAUCAUUUUAAGGGUA")
1
>>> class_label("GUUAACGGUCAUAGGCCAUGGAAACUAGGAGCACCAUUUCGCUGCCAGUGAAGGAAUGAACAAAGAAAAUCUGGGCCAGGCAGGCAUCAAAAGAAAUAGUCUUGCGCUCAACCAGAAAGUCUGUAAUCAUUUUAGGGGUA")
1
>>> class_label("GUUAGCGGUCAUAGGCCAUGAAAACUAGGAGCACCAUUUCGCUGCCAGUGAAGAAAUGAACAAAGAAAAUCUGGGCCAGGCAGGCAUCAAAAGAAAUAGUCUUGCGCUCAACCAGAAAGUCUGUAAUCAUUUUAAGGGUA")
1
>>> class_label("GUUAACGGUCAUAGGCCAUGGAAACUAGGAGCACCAUUUCGCUGCCAGUGAAUAAAUGAACAAAGAAAAUCUGGGCCAGGCAGGCAUCAAAAGAAAUAGUCUUGCGCUCAACCAGAAAGUCCGUAAUCAUUUUAAGGGUA")
1
>>> class_label("GUUAACGGUCAUAGGCCAUGGAAACUAGGAGCACCAUUUCGCUGCCAGUGAAGAAAUGAACAAAGAAAAUCUGGGCCAGGCAGGCAUCAAUAGAAAUAGUCUUGCGCUCAACCAGAAUGUCUGUAAUCAUUUUAAGGGUA")
1
>>> class_label("GUUAGCGGUCAUAGGCCAUGGAAACUAGGAGCACCAUUUCGCUGCCAGUGAAGAAGUGAACAAAGAAAAUCUGGGCCAGGCAGGCAUCAAAAGAAAUAGUCUUGCGCUCAACCAGAAAGUCUGUAAUCAUUUUAAGGGUA")
0

With those in mind, consider the next variant.
Request: Confirm if self-cleavage reported for the variant GUUAACGGUCAUAGGCCAUGGAAACUAGGAGCACCAUUUCGCUGCCAGUGAAGAAAUGAACAAAGCAAAUCUGGGCCAGGCAGGCAUCAAAAGAGAUAGUCUUGCGCUCAACCAGAAAGUCUGUAAUCAUUUUAAGGGUA is 1 or above.
Response: 1
